B1: CPEB3 Ribozyme (parent)
chain: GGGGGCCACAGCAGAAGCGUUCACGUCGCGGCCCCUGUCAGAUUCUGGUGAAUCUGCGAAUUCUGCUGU

- Variants of: B1
- testSummary: self-cleavage, relative activity (ratio to wild type); higher = more cleavage; co-transcriptional
Could you label it Met if measured self-cleavage is 0.6 or higher, and Not met otherwise?

{"mut": "G14U A52G", "labelClass": "Met"}
{"mut": "C63U U64A", "labelClass": "Met"}
{"mut": "U43A A59G", "labelClass": "Met"}
{"mut": "C33U U43C", "labelClass": "Met"}
{"mut": "C9A C22A", "labelClass": "Not met"}

Q. Please indicate if the recorded self-cleavage for C39G A59G meets or exceeds 0.6.
A. Met

Q. Please do the same for U43A A59U as well.
A. Not met

Q. Please do the same for A13U U43G as well.
A. Not met

Q. Please do the same for U21G C45A as well.
A. Met

Q. Please do the same for A16G U55A as well.
A. Met
